target: Human plasma kallikrein (Homo sapiens); construct: yields a heavy chain (371 amino acids) and a light chain (248 amino acids); The active site of plasma kallikrein is contained in the light chain; assay: Plasma Kallikrein Assay; details: purified Human plasma kallikrein 0.5 nM, substrate Acetyl-K-P-R-AFC, HEPES pH 7.4; read-out: PKal IC50
The label MET is reserved for IC50 strictly under 10 nM; NOT MET covers values equal to or above it.

samplesmiles=COc1cccc(Cn2ncc(C(=O)N3CCC[C@@]4(C3)OC(=O)Nc3ccc(Cl)c(F)c34)c2N)c1 answerlabel=MET
samplesmiles=Nc1c(C(=O)N2CCC[C@@]3(C2)OC(=O)Nc2ccc(Cl)c(F)c23)cnn1CC1(C(F)(F)F)CC1 answerlabel=MET
samplesmiles=Nc1c(C(=O)N2CCC[C@@]3(C2)OC(=O)Nc2ccc(Cl)c(F)c23)cnn1-c1ccccc1Br answerlabel="NOT MET"
samplesmiles=Nc1c(C(=O)N2CCC[C@@]3(C2)OC(=O)Nc2ccc(Cl)c(F)c23)cnn1-c1ccnc2c(F)cccc12 answerlabel=MET
samplesmiles=Nc1c(C(=O)N2CCC[C@@]3(C2)OC(=O)Nc2ccc(Cl)c(F)c23)cnn1-c1cccc2c1OC(F)(F)O2 answerlabel=MET
samplesmiles=Nc1c(C(=O)N2CCC[C@@]3(C2)OC(=O)Nc2ccc(Cl)c(F)c23)nnn1Cc1ccccc1 answerlabel="NOT MET"
samplesmiles=CC(C)n1ncc(C(=O)N2CCC[C@@]3(C2)OC(=O)Nc2ccc(Cl)c(F)c23)c1N answerlabel=MET

###

target: Human plasma kallikrein (Homo sapiens, UniProt P03952); construct: yields a heavy chain (371 amino acids) and a light chain (248 amino acids); The active site of plasma kallikrein is contained in the light chain; assay: Plasma Kallikrein Assay; settings: purified Human plasma kallikrein 0.5 nM, substrate Acetyl-K-P-R-AFC, HEPES pH 7.4; read-out: PKal IC50
Sequence (P03952 391-638 limits assumed): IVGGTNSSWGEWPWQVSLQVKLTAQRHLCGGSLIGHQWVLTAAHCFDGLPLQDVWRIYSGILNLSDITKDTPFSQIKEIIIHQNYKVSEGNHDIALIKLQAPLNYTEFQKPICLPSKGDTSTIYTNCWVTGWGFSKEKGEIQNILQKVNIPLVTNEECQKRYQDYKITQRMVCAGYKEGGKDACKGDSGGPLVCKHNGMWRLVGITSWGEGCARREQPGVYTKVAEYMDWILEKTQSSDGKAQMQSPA
Sequence (P03952 20-390 partner limits assumed): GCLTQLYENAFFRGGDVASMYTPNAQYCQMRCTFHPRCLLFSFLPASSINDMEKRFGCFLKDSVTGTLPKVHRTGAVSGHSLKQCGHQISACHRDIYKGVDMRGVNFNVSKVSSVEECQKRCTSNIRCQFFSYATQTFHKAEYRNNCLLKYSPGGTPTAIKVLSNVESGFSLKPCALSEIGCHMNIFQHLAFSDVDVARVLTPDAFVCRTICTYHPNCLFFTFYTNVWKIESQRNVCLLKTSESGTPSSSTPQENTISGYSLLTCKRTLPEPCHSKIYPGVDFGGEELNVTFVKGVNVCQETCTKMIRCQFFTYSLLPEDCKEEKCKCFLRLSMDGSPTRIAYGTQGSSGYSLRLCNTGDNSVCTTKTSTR
The label Condition met is reserved for IC50 strictly under 4 nM; Condition not met covers values equal to or above it.

molecule="Nc1c(C(=O)N2CCC[C@@]3(C2)OC(=O)Nc2ccc(Cl)c(F)c23)cnn1C(C1CC1)C(F)(F)F (single isomer, unassigned) [Example 124]" answerlabel="Condition met"
molecule=CC(C)(n1ncc(C(=O)N2CCC[C@@]3(C2)OC(=O)Nc2ccc(Cl)c(F)c23)c1N)C(F)(F)F answerlabel="Condition not met"
molecule=Nc1c(C(=O)N2CCC[C@@]3(C2)OC(=O)Nc2ccc(Cl)c(F)c23)cnn1-c1ccc2cn[nH]c2c1 answerlabel="Condition not met"
molecule=Nc1c(C(=O)N2CCC[C@@]3(C2)OC(=O)Nc2ccc(Cl)c(F)c23)cnn1Cc1ccc(Cl)cc1 answerlabel="Condition met"
molecule=Nc1c(C(=O)N2CCC[C@@]3(C2)OC(=O)Nc2ccc(Cl)c(F)c23)cnn1-c1ccccc1Oc1ccccc1 answerlabel="Condition met"
molecule="CC(n1ncc(C(=O)N2CCC[C@@]3(C2)OC(=O)Nc2ccc(Cl)c(F)c23)c1N)C(F)(F)F (single isomer, unassigned) [Example 120]" answerlabel="Condition not met"
molecule=Cc1noc(C)c1Cn1ncc(C(=O)N2CCC[C@@]3(C2)OC(=O)Nc2ccc(Cl)c(F)c23)c1N answerlabel="Condition met"
molecule=Nc1c(C(=O)N2CCC[C@@]3(C2)OC(=O)Nc2ccc(Cl)c(F)c23)cnn1-c1ccc(N2CCOC2=O)cc1 answerlabel="Condition not met"
molecule=Nc1c(C(=O)N2CCC[C@@]3(C2)OC(=O)Nc2ccc(Cl)c(F)c23)cnn1CC1(F)CC1 answerlabel="Condition not met"
molecule="Nc1c(C(=O)N2CCC[C@@]3(C2)OC(=O)Nc2ccc(Cl)c(F)c23)cnn1C(C1CC1)C(F)(F)F (single isomer, unassigned) [Example 125]" answerlabel="Condition not met"
molecule=Cn1c(-c2ccccc2)nnc1-n1ncc(C(=O)N2CCC[C@@]3(C2)OC(=O)Nc2ccc(Cl)c(F)c23)c1N answerlabel="Condition not met"
molecule=Nc1c(C(=O)N2CCC[C@@]3(C2)OC(=O)Nc2ccc(Cl)c(F)c23)cnn1C1(c2ccc(F)cc2)CCC1 answerlabel="Condition met"
molecule=Nc1c(C(=O)N2CCC[C@@]3(C2)OC(=O)Nc2ccc(Cl)c(F)c23)cnn1-c1ccnc2ccc(F)cc12 answerlabel="Condition not met"
molecule=Nc1c(C(=O)N2CCC[C@@]3(C2)OC(=O)Nc2ccc(Cl)c(F)c23)cnn1Cc1cncnc1 answerlabel="Condition not met"

###

// reported pIC50 for each item listed
molecular target: Human plasma kallikrein (Homo sapiens); construct: yields a heavy chain (371 amino acids) and a light chain (248 amino acids); The active site of plasma kallikrein is contained in the light chain; assay: Plasma Kallikrein Assay; settings: purified Human plasma kallikrein 0.5 nM, substrate Acetyl-K-P-R-AFC, HEPES pH 7.4; read-out: PKal IC50
pIC50: −log10 of the molar value.
valueType: pIC50

compound=Nc1c(C(=O)N2CCC[C@@]3(C2)OC(=O)Nc2ccc(Cl)c(F)c23)cnn1CCN1CCOCC1 measuredtarget="Human plasma kallikrein (Homo sapiens)" reportedmeasurement=7.37
compound=Nc1c(C(=O)N2CCC[C@@]3(C2)OC(=O)Nc2ccc(Cl)c(F)c23)cnn1-c1ccnc2ccccc12 measuredtarget="Human plasma kallikrein (Homo sapiens)" reportedmeasurement=8.00
compound=Nc1c(C(=O)N2CCC[C@@]3(C2)OC(=O)Nc2ccc(Cl)c(F)c23)cnn1C1Cc2ccccc2C1 measuredtarget="Human plasma kallikrein (Homo sapiens)" reportedmeasurement=8.62
compound="CC(n1ncc(C(=O)N2CCC[C@@]3(C2)OC(=O)Nc2ccc(Cl)c(F)c23)c1N)C(F)(F)F (single isomer, unassigned) [Example 121]" measuredtarget="Human plasma kallikrein (Homo sapiens)" reportedmeasurement=8.31
compound="CCC(n1ncc(C(=O)N2CC(C)(C)C[C@@]3(C2)OC(=O)Nc2ccc(Cl)c(F)c23)c1N)C(F)(F)F (single isomer, unassigned) [Example 131]" measuredtarget="Human plasma kallikrein (Homo sapiens)" reportedmeasurement=8.92
compound=CC1(C)CN(C(=O)c2cnn(-c3ccccc3)c2N)C[C@]2(C1)OC(=O)Nc1ccc(Cl)c(F)c12 measuredtarget="Human plasma kallikrein (Homo sapiens)" reportedmeasurement=7.38
compound=Nc1c(C(=O)N2CCC[C@@]3(C2)OC(=O)Nc2ccc(Cl)c(F)c23)cnn1-c1c(Cl)cncc1Cl measuredtarget="Human plasma kallikrein (Homo sapiens)" reportedmeasurement=8.42
compound=Nc1c(C(=O)N2CCC[C@@]3(C2)OC(=O)Nc2ccc(Cl)c(F)c23)cnn1CCc1ccccc1 measuredtarget="Human plasma kallikrein (Homo sapiens)" reportedmeasurement=8.39
compound=Nc1c(C(=O)N2CCC[C@@]3(C2)OC(=O)Nc2ccc(Cl)c(F)c23)cnn1C1(c2ccc(F)cc2)CC1 measuredtarget="Human plasma kallikrein (Homo sapiens)" reportedmeasurement=8.54
compound=Nc1c(C(=O)N2CCC[C@@]3(C2)OC(=O)Nc2ccc(Cl)c(F)c23)cnn1CC1CC1 measuredtarget="Human plasma kallikrein (Homo sapiens)" reportedmeasurement=8.14
compound=Cc1ccc(F)cc1-n1ncc(C(=O)N2CCC[C@@]3(C2)OC(=O)Nc2ccc(Cl)c(F)c23)c1N measuredtarget="Human plasma kallikrein (Homo sapiens)" reportedmeasurement=7.33
compound=Cc1ccc(-n2ncc(C(=O)N3CCC[C@@]4(C3)OC(=O)Nc3ccc(Cl)c(F)c34)c2N)c(F)c1 measuredtarget="Human plasma kallikrein (Homo sapiens)" reportedmeasurement=7.41
compound=Nc1c(C(=O)N2CCC[C@@]3(C2)OC(=O)Nc2ccc(Cl)c(F)c23)cnn1-c1cc(F)ccc1Cl measuredtarget="Human plasma kallikrein (Homo sapiens)" reportedmeasurement=7.44
compound=Cc1c(CO)cccc1-n1ncc(C(=O)N2CCC[C@@]3(C2)OC(=O)Nc2ccc(Cl)c(F)c23)c1N measuredtarget="Human plasma kallikrein (Homo sapiens)" reportedmeasurement=7.54

###

target: Human plasma kallikrein (Homo sapiens); construct: yields a heavy chain (371 amino acids) and a light chain (248 amino acids); The active site of plasma kallikrein is contained in the light chain; experiment: Plasma Kallikrein Assay; details: purified Human plasma kallikrein 0.5 nM, substrate Acetyl-K-P-R-AFC, HEPES pH 7.4; read-out: PKal IC50
The label Yes is reserved for IC50 strictly under 30 nM; No covers values equal to or above it.

compound="Cc1ccc(-n2ncc(C(=O)N3CCC[C@@]4(C3)OC(=O)Nc3ccc(Cl)c(F)c34)c2N)cc1 [Example 111]" answerlabel=No
compound="CC(C)(C)n1ncc(C(=O)N2CCC[C@@]3(C2)OC(=O)Nc2ccc(Cl)c(F)c23)c1N [Example 23]" answerlabel=Yes
compound="Cc1ncccc1-n1ncc(C(=O)N2CCC[C@@]3(C2)OC(=O)Nc2ccc(Cl)c(F)c23)c1N [Example 61]" answerlabel=No
compound="Nc1c(C(=O)N2CCC[C@@]3(C2)OC(=O)Nc2ccc(Cl)c(F)c23)cnn1CCOCC(F)(F)F [Example 20]" answerlabel=Yes

###

molecular target: human factor XIa (Homo sapiens)
Sequence (P03951 388-625 limits assumed): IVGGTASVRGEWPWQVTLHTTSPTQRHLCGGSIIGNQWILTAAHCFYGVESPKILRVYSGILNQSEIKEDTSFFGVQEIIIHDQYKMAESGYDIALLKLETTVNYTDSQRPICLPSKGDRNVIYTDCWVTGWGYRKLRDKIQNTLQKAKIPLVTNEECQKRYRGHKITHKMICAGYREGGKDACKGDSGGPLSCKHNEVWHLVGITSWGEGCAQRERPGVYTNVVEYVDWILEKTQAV
Sequence (P03951 19-387 partner limits assumed): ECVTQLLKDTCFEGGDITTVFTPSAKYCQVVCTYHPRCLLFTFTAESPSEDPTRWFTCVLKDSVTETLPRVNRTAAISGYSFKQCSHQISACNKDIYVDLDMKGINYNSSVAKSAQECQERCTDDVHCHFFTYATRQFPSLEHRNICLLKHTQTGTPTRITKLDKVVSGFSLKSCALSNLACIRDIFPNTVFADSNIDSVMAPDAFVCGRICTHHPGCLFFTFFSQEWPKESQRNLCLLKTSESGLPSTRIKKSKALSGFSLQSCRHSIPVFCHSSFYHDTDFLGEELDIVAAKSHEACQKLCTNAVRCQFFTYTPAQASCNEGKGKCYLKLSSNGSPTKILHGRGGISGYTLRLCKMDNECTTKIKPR
// reported IC50 for each item listed
valueType: IC50

compound=Nc1c(C(=O)N2CCC[C@@]3(C2)OC(=O)Nc2ccc(Cl)c(F)c23)cnn1CC1CCOCC1 reportedmeasurement="476 nM"
compound=Nc1c(C(=O)N2CCC[C@@]3(C2)OC(=O)Nc2ccc(Cl)c(F)c23)cnn1-c1ccnc2ccccc12 reportedmeasurement="610 nM"
compound=CCOC(=O)c1ccc(C)c(-n2ncc(C(=O)N3CCC[C@@]4(C3)OC(=O)Nc3ccc(Cl)c(F)c34)c2N)c1 reportedmeasurement="1140 nM"
compound="COCC(C)(n1ncc(C(=O)N2CCC[C@@]3(C2)OC(=O)Nc2ccc(Cl)c(F)c23)c1N)C(F)(F)F (single isomer, unassigned)" reportedmeasurement="898 nM"
